target: recombinant rat PIM-3 (Rattus norvegicus); assay: PIM-3 Assay (as Example A with recombinant rat PIM-3); conditions: 30 μM ATP, 3.75 μM PIM2tide, 0.5 nM PIM-3; high dose 10 μM
recordedEndpoint: IC50 (nM)

In [3]: df
Out[3]:
                            structurestring  recordedendpoint  measvalue
0  CCNCc1ccn2c(-c3ccc4cccc(N5CCC(CN)CC5)c4n3)nnc2c1              IC50          4
1  C[C@@H]1CN(c2cccc3ccc(-c4nnc5ccccn45)nc23)C[C@H](C)N1              IC50        189
2  C[C@@H]1CN(c2cccc3ccc(-c4nnc5ccccn45)nc23)CCN1              IC50        105
3  NCC1CCN(c2cccc3ccc(-c4nnc5ccccn45)nc23)CC1              IC50         13
4  NCC1CCN(c2cc(Cl)cc3ccc(-c4nnc5ccccn45)nc23)CC1              IC50         25

---

molecular target: PIM-1 (Homo sapiens, UniProt P11309)
Sequence (P11309 whole entry, species assumed): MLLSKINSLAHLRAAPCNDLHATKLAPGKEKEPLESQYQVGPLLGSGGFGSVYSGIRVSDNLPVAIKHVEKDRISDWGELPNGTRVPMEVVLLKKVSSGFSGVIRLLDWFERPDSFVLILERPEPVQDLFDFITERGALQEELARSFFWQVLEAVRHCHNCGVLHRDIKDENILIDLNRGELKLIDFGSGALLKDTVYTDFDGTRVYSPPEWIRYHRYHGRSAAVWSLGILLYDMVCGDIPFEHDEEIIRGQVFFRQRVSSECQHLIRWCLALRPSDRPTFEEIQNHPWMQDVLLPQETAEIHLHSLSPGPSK
pIC50: −log10 of the molar value.
# pIC50 >= 7 gives Yes, anything below gives No

                                   compound  answerlabel
0  OC1CCCN(c2cccc3ccc(-c4nnc5ccccn45)nc23)C1 (stereo not shown)          Yes
1  NCC1CCN(c2cccc3ccc(-c4nnc5cc(C(O)CO)ccn45)nc23)CC1 (stereo not shown)          Yes
2  COc1ccn2c(-c3ccc4cccc(N5CCNCC5)c4n3)nnc2c1           No
3  C[C@@H]1CN(c2cccc3ccc(-c4nnc5ccccn45)nc23)C[C@H](C)N1          Yes
4  c1cc(N2CCCCC2)c2nc(-c3nnc4ccccn34)ccc2c1          Yes

---

molecular target: GST-tagged recombinant full-length human Pim-2 (Homo sapiens, UniProt Q9P1W9); construct: GST-tagged recombinant full-length human Pim-2; GST; assay: PIM-2 Assay (as Example A with GST-tagged recombinant full-length human Pim-2); conditions: 4 μM ATP, 1.0 μM PIM2tide, 1.5 nM Pim-2; high dose 10 μM
Sequence (Q9P1W9 whole entry): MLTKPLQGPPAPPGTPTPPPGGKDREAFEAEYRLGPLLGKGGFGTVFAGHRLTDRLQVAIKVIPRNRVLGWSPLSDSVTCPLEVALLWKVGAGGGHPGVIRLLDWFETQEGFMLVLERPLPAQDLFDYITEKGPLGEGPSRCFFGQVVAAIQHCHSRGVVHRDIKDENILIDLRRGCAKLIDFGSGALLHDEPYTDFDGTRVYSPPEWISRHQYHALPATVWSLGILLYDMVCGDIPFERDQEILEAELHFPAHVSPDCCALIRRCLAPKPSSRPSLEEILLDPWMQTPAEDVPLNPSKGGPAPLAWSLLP
pIC50: −log10 of the molar value.
recordedEndpoint: pIC50

In [3]: df
Out[3]:
                                    compound  qualifiersign  measvalue
 0  C[C@@H]1CN(c2cccc3ccc(-c4nnc5ccccn45)nc23)C[C@H](C)N1              ≤       5.00
 1  Cc1nc(CN2CCN(c3cccc4ccc(-c5nnc6ccccn56)nc34)CC2)cs1              ≤       5.00
 2  COc1ccn2c(-c3ccc4cccc(N5CCNCC5)c4n3)nnc2c1              ≤       5.00
 3  COCCOc1ccn2c(-c3ccc4cccc(N5CCNCC5)c4n3)nnc2c1              ≤       5.00
 4  COc1ccn2c(-c3ccc4cccc(N5CCOCC5)c4n3)nnc2c1              ≤       5.00
 5  C[C@@H]1CN(c2cccc3ccc(-c4nnc5ccccn45)nc23)CCN1              =       5.44
 6  NC1CCN(c2cccc3ccc(-c4nnc5ccccn45)nc23)CC1              =       6.27
 7  NCC1CCN(c2cc(Cl)cc3ccc(-c4nnc5ccccn45)nc23)CC1              =       6.13
 8  CC1(N)CCN(c2cccc3ccc(-c4nnc5ccccn45)nc23)CC1              =       6.21
 9  NCC1CCN(c2ccc(F)c3ccc(-c4nnc5ccccn45)nc23)CC1              =       5.71
10  NCC1CCN(c2cc(F)cc3ccc(-c4nnc5ccccn45)nc23)CC1              =       6.73
11  CC1CCCN(c2c(Br)ccc3ccc(-c4nnc5ccccn45)nc23)C1 (stereo not shown)              =       5.52
12  CC1CCCN(c2cccc3ccc(-c4nnc5ccccn45)nc23)C1 (stereo not shown)              =       5.75
13  NCc1ccn2c(-c3ccc4cccc(N5CCC(CN)CC5)c4n3)nnc2c1              =       7.54
14  COc1ccn2c(-c3ccc4cccc(N5CCC(N)CC5)c4n3)nnc2c1              =       5.64
15  NCC1CCN(c2cccc3ccc(-c4nnc5cc(C(O)CO)ccn45)nc23)CC1 (stereo not shown)              =       6.29
